# measured.on: human Nav1.8 (Homo sapiens (Human), UniProt Q9Y5Y9)
# Sequence (Q9Y5Y9 whole entry): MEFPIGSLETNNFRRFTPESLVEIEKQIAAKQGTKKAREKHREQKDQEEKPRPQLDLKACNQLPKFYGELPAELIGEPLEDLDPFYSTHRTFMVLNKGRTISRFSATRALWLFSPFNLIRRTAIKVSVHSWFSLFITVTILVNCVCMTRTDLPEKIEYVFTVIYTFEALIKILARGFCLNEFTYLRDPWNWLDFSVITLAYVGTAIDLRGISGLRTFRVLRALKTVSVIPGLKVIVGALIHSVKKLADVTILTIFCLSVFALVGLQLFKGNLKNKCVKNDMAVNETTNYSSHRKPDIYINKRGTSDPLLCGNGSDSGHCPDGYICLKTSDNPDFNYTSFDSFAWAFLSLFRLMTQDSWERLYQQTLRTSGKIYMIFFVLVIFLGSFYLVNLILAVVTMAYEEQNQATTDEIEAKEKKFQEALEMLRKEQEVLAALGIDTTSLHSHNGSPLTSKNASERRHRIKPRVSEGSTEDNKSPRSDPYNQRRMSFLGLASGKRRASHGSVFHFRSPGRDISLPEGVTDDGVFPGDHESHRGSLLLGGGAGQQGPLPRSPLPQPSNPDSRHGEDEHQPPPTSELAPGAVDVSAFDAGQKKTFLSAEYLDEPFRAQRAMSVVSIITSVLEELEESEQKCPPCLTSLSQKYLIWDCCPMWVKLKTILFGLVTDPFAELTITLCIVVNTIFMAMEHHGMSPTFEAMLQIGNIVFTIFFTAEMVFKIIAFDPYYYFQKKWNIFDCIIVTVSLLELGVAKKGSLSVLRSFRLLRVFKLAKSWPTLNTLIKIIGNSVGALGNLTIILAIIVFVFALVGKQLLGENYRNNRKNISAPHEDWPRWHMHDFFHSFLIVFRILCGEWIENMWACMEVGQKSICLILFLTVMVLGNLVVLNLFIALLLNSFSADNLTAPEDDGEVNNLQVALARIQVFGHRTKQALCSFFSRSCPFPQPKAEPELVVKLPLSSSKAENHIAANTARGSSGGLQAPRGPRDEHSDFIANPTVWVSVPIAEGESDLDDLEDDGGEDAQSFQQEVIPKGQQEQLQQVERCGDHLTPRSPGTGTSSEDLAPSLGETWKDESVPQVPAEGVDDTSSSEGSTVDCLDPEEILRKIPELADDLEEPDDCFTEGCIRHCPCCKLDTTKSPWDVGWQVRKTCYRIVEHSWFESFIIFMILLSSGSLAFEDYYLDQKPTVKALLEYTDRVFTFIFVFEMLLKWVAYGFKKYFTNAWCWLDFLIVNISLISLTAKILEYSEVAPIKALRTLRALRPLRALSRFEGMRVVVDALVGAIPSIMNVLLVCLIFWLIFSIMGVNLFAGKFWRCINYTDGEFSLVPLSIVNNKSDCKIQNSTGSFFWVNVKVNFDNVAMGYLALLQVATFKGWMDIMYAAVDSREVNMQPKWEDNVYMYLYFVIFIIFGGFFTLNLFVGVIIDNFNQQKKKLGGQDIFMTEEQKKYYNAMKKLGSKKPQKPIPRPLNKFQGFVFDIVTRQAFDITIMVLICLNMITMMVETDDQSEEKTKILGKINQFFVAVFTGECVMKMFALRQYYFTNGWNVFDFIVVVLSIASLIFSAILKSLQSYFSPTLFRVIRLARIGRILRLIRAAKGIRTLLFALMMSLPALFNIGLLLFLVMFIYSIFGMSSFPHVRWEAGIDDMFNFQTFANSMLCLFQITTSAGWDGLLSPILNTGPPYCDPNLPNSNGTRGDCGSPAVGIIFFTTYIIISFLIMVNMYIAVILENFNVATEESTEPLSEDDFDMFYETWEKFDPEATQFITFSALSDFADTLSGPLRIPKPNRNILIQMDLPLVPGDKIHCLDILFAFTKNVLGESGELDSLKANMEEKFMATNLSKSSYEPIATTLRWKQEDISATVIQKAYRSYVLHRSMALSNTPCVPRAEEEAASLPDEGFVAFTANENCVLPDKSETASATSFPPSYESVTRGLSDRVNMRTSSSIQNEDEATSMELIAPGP
# Sequence (Q07699 19-218 partner): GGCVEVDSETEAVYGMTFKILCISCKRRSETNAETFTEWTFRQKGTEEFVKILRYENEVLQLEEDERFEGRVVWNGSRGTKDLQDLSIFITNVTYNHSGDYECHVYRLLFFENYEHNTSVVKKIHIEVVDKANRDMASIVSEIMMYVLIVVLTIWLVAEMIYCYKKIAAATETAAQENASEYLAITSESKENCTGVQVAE
# protocol.notes: QPatch 48 HTX voltage-clamp electrophysiology, half inactivation state (V1/2) protocol, HEK293-Nav1.8 cells
# Type: cell-based
# test.conditions: HEK293 cells expressing human Nav1.8, human Navβ1 and human TREK1, P2 current
Structures can show the parent of a compound that is named as a salt.
quantity.name: Nav1.8, pIC50
Answers are plain numbers.

For each of the items listed, what is its Nav1.8, pIC50?
1. N#Cc1cc2c(cc1F)C(=O)N1CN2c2ccc(F)c(F)c2CNCCc2[nH]c(=O)ccc21
2. Cl.O=C1c2cc(F)c(C(F)(F)F)cc2N2CN1c1ccc(=O)[nH]c1CCCNCc1c2ccc(F)c1F
3. O=C1c2cc(C(F)(F)F)cnc2N2CN1c1ccc(=O)[nH]c1CCCCCc1cc(F)ccc12
4. Cl.O=C1c2cc(Cl)c(C(F)(F)F)cc2N2CN1c1ccc(=O)[nH]c1CCNCc1cc(F)ccc12
5. O=C1c2ccc(C(F)(F)F)cc2N2CN1c1ccc(=O)[nH]c1NCCCCc1cc(F)ccc12
6. CN1CCCc2cc(F)ccc2N2CN(C(=O)c3cc(C(F)(F)F)ccc32)c2ccc(=O)[nH]c21
7. C[C@@H]1NCCc2[nH]c(=O)ccc2N2CN(c3cc(Cl)c(F)cc3C2=O)c2ccc(F)cc21

1. 7.4
2. 7.6
3. 7.2
4. 7.8
5. 7.6
6. 6.9
7. 5.9

For each of the items listed, what is its Nav1.8, pIC50?
1. O=C1c2cc(F)c(F)cc2N2CN1c1ccc(=O)[nH]c1CCNCc1c2ccc(F)c1O.O=CO
2. CC1NCCc2[nH]c(=O)ccc2N2CN(c3cc(C(F)(F)F)c(F)cc3C2=O)c2ccc(F)cc21 (racemic) [Example 117, hydrochloride]
3. Cl.O=C1c2cc(F)c(F)cc2N2CN1c1ccc(=O)[nH]c1CCNCc1cc(Cl)ccc12
4. C[C@@H]1NCCCc2[nH]c(=O)ccc2N2CN(c3cc(C(F)(F)F)c(F)cc3C2=O)c2ccc(F)cc21

1. 5.5
2. 7.3
3. 7.2
4. 6.6

For each of the items listed, what is its Nav1.8, pIC50?
1. Cl.O=C1c2cc(F)c(C(F)(F)F)cc2N2CN1c1ccc(=O)[nH]c1CCNCc1c2ccc(F)c1O
2. O=C1c2c(ccc(C(F)(F)F)c2F)N2CN1c1ccc(=O)[nH]c1NCCCc1cc(F)ccc12
3. Cl.O=C1c2cc(F)c(C(F)(F)F)cc2N2CN1c1ccc(=O)[nH]c1CNCCCc1cc(F)ccc12
4. Cl.[2H]C1([2H])N2C(=O)c3cc(F)c(F)cc3N1c1ccc(F)c(Cl)c1CNCCc1[nH]c(=O)ccc12

6.4
7.5
7.8
8.3
